Hey, just so you know, these numbers are from patent US20200095340A1.

Catalogue of binders with associated Kd
- assayed.target: biotinylated human DLL3 protein expressed as a human IgG1 fusion protein (human) (UniProt Q9NYJ7)
- Sequence (Q9NYJ7 27-492): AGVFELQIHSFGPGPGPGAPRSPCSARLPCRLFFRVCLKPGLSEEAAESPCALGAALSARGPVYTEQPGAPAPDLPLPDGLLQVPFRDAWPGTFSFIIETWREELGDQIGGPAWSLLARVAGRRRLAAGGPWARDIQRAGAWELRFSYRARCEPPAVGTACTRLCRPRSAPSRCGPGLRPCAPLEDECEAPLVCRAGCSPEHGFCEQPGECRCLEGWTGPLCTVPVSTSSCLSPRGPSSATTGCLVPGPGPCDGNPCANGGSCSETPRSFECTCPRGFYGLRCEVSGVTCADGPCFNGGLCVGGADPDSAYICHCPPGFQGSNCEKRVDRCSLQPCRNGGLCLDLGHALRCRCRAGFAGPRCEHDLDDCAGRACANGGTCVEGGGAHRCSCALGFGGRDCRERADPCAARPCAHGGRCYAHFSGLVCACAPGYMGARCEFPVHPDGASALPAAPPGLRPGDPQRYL
- assay.overview: Octet, biotinylated human DLL3-IgG1 fusion on streptavidin tips, single 50 nM, conditioned medium (relative KD)

{"columns": ["binder", "Kd [nM]"],
 "data": [
  ["anti-DLL3 trispecific protein, DLL3 binder 4G07 (protein, part only; not given: anti-CD3 fragment and anti-albumin domain, part only) chain, part: EVQLVESGGGLVQPGGSLTLSCAASGSSVSFLSVAWYRQAPGKKRELVAGISANGSTDYIDSVKGRFTISRDNAKNSVYLQMNSLRAEDTAVYYCYAYRWTNRYTYWGQGTLVTVSSGGGGSGGGSGGGGSGGGSHHHHHH", 18],
  ["anti-DLL3 trispecific protein, DLL3 binder 4H07 (protein, part only; not given: anti-CD3 fragment and anti-albumin sdAb, part only) chain, part: EVQLVESGGGLVQPGGSLTLSCAASGRSVSFLSMAWYRQAPGKKRELVAGISANGSTDYIDSVKGRFTISRDNAKNSVYLQMNSLRAEDTAVYYCYAYRWSTRYTYWGQGTLVTVSSGGGGSGGGSGGGGSGGGSHHHHHH", 16]
]}
